- system_under_test: Retinoic acid receptor alpha (Homo sapiens, UniProt P10276)
- Sequence (P10276 whole entry): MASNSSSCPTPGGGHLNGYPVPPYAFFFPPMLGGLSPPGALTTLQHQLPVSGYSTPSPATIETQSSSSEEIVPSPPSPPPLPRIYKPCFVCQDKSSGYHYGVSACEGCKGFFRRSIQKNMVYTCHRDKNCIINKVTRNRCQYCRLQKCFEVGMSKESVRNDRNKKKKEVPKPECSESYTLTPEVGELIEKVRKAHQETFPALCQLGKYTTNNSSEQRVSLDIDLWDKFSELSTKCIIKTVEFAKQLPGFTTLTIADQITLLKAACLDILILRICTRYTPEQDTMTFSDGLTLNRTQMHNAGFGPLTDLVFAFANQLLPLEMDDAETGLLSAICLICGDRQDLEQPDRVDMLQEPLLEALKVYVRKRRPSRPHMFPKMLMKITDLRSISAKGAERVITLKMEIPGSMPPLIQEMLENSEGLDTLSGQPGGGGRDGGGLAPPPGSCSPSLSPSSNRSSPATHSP
- experimental_details: Affinity On-target Cellular interaction: (Reporter gene assay (HEK293T cells)) EUB0000565a RARA
- Format: functional, cell-based, HEK-293T
- Design: mode of action Agonist, recommended concentration 1 uM
recorded_endpoint: EC50

# smiles_str, system_under_test, reported_value
records = [
    ("CC1(C)C(=O)C(C)(C)c2cc(C(=O)Nc3ccc(C(=O)O)cc3)ccc21", "Retinoic acid receptor alpha (Homo sapiens, UniProt P10276)", "110 nM"),
]

====

- system_under_test: UniProtKB P20393
- Sequence (P20393 whole entry): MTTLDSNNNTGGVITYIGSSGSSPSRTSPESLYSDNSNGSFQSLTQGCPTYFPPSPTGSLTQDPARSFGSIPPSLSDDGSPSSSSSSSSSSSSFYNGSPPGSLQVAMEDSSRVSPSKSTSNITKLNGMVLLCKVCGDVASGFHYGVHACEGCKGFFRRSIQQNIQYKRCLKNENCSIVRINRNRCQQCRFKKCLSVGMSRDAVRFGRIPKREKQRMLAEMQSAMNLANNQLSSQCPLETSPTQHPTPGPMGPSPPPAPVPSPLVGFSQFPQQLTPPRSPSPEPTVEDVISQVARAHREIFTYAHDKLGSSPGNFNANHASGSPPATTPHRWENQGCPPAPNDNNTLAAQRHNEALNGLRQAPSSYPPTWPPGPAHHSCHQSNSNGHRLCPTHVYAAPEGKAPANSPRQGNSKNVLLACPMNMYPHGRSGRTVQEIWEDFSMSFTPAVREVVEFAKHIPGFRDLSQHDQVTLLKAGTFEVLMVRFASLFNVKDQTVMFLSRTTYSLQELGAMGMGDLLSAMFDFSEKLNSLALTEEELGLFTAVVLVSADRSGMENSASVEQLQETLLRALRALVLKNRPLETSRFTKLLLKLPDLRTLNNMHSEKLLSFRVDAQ
- experimental_details: Affinity On-target Cellular interaction: (Reporter gene assay (HEK293T cells)) EUB0001153a NR1D1
- Assay type: functional, cell-based, HEK-293T
- Design: mode of action Antagonist, recommended concentration 10 uM
recorded_endpoint: IC50 (µM)

# molecule, reported_value
measured = [
    ("CCOC(=O)C1Cc2ccccc2CN1C(=O)c1ccc(SC)s1 (stereo unspecified)", 0.47),
]

====

- system_under_test: Histone-lysine N-methyltransferase EZH1 (Homo sapiens)
- Sequence (Q92800 whole entry): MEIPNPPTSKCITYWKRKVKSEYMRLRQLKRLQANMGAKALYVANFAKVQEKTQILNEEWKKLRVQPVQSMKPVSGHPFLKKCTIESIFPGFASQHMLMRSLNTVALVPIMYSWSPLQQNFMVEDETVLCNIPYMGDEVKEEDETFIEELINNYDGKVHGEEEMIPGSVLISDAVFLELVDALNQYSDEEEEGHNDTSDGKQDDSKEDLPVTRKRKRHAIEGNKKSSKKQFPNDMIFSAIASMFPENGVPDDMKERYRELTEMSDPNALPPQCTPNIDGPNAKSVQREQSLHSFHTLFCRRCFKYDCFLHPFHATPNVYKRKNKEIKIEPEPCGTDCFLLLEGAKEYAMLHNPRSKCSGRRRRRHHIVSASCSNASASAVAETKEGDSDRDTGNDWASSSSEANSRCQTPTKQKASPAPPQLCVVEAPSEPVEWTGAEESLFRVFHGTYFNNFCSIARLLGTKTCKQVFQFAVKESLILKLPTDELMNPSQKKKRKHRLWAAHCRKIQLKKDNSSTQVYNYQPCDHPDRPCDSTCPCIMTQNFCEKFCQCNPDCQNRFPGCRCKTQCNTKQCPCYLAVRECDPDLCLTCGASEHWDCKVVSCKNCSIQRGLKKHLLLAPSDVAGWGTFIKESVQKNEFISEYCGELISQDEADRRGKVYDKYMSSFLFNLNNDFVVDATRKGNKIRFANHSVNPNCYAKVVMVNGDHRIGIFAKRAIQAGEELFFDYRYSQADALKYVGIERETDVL
- experimental_details: Affinity On-target Cellular interaction: (Protein substrate methylation in WSU-DLCL2 cells) EUB0002228a EZH1
pIC50: −log10 of the molar value.

# smiles_str, pIC50
measured = [
    ("CCN(c1cc(C#CCN2CCOCC2)cc(C(=O)NCc2c(C)cc(C)[nH]c2=O)c1C)[C@H]1CC[C@H](N(C)CCOC)CC1", "> 7.00"),
]

====

- system_under_test: UniProt:P55055
- Sequence (P55055 whole entry): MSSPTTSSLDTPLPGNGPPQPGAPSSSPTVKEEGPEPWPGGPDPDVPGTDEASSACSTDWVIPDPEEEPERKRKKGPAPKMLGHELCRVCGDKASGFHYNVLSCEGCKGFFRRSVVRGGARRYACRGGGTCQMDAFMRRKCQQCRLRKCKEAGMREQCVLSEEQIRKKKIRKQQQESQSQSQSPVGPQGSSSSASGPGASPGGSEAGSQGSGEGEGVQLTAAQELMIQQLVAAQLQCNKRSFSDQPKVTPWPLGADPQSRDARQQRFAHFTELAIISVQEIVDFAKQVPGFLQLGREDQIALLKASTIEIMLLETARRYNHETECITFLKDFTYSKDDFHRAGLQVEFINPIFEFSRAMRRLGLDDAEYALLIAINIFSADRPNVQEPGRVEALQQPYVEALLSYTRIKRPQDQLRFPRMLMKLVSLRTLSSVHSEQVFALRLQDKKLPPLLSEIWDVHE
- experimental_details: Affinity On-target Cellular interaction: (Reporter gene assay (HEK293T cells)) EUB0001166a NR1H2
- Format: functional, cell-based, HEK-293T
- Design: mode of action Agonist, recommended concentration 1 uM
pEC50: −log10 of the molar value.

# compound, system_under_test, pEC50
records = [
    ("CC(C)(O)c1cn(-c2ccc(-c3cccc(S(C)(=O)=O)c3)cc2)c(C(C)(C)c2ccccc2Cl)n1 [BMS-779788]", "UniProt:P55055", 6.52),
]

====

- system_under_test: Acid ceramidase (Homo sapiens, UniProt Q13510)
- Sequence (Q13510 whole entry): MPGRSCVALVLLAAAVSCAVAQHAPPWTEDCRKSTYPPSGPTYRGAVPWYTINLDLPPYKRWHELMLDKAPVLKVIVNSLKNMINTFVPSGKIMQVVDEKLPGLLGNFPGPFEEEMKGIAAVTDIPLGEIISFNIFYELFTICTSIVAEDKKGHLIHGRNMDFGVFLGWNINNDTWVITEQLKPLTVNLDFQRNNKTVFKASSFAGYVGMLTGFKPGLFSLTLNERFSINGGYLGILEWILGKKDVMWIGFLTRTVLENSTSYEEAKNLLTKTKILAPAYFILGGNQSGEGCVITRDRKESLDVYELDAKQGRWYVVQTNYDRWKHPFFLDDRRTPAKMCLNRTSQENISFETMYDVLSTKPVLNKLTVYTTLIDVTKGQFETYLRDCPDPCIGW
- experimental_details: Affinity On-target Cellular interaction: (Inhibition of ASAH1 in A375 cell lysates overexpressing ASAH1) EUB0002723a ASAH1
- Format: functional, subcellular, A-375
- Design: mode of action Inhibitor, recommended concentration 1 uM
pKi: −log10 of the molar value.

# smiles_str, system_under_test, pKi
data = [
    ("CCCCCCCCCCCCC/C=C/[C@@H](O)[C@H](CO)NC(=O)CCl", "Acid ceramidase (Homo sapiens, UniProt Q13510)", 7.40),
]

====

- system_under_test: Dipeptidyl peptidase 2 (Homo sapiens, UniProt Q9UHL4)
- experimental_details: Affinity On-target Cellular interaction: (inhibition of fluorogenic substrate cleavage, U937 cell) EUB0002750aCl DPP7
- Type: functional, cell-based, U-937
- Design: mode of action Inhibitor, recommended concentration 1 uM
pIC50: −log10 of the molar value.
recorded_endpoint: pIC50

# smiles_str, reported_value
rows = [
    ("N[C@@H](CCNCc1ccc(Cl)cc1)C(=O)N1CCCCC1", 9.85),
]

====

- system_under_test: Nuclear receptor ROR-gamma (Homo sapiens)
- Sequence (P51449 whole entry): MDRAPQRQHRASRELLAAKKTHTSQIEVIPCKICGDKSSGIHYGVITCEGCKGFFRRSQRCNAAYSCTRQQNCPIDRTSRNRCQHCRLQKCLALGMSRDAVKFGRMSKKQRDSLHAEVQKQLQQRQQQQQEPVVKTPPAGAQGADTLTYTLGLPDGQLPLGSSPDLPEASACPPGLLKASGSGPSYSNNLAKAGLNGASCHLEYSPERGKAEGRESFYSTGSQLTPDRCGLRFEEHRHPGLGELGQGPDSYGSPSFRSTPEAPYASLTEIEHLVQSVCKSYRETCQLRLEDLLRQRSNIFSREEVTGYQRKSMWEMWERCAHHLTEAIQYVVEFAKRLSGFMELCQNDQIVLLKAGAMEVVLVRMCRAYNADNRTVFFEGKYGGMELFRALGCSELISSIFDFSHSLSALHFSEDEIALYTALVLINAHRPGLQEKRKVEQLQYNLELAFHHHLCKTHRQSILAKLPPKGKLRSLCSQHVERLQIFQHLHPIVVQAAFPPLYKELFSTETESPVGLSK
- experimental_details: Affinity On-target Cellular interaction: (Reporter gene assay (HEK293T cells)) EUB0001157a RORC
- Type: functional, cell-based, HEK-293T
- Design: mode of action Inverse Agonist, recommended concentration 10 uM
pIC50: −log10 of the molar value.

# smiles_str, pIC50
measured = [
    ("O=S(=O)(Nc1ccc(C(O)(C(F)(F)F)C(F)(F)F)cc1)c1cccs1", 5.49),
]

====

- system_under_test: Peroxisome proliferator-activated receptor gamma (Homo sapiens)
- Sequence (P37231 whole entry): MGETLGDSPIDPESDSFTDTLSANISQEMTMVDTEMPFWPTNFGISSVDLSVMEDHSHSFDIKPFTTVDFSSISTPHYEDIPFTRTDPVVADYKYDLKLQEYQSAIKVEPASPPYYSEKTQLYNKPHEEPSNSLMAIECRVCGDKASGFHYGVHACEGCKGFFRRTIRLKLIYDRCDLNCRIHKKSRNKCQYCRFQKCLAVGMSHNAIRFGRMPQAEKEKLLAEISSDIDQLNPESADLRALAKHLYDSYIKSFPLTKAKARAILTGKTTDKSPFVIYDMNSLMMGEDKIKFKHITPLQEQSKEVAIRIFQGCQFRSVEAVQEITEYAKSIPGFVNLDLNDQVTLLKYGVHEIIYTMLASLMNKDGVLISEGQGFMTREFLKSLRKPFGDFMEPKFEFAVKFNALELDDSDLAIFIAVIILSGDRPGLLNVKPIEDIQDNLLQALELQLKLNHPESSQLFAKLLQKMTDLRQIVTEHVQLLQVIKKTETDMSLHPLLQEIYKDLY
- experimental_details: Affinity On-target Cellular interaction: (Reporter gene assay (HEK293T cells)) EUB0000188b PPARG
- Assay type: functional, cell-based, HEK-293T
- Design: mode of action Agonist, recommended concentration 1 uM

# smiles_str, EC50 (µM)
rows = [
    ("CCCc1c(OCCCOc2ccc(OCC(=O)O)cc2)ccc(C(C)=O)c1O", 0.98),
]

====

- system_under_test: Oxysterols receptor LXR-beta (Homo sapiens)
- Sequence (P55055 whole entry): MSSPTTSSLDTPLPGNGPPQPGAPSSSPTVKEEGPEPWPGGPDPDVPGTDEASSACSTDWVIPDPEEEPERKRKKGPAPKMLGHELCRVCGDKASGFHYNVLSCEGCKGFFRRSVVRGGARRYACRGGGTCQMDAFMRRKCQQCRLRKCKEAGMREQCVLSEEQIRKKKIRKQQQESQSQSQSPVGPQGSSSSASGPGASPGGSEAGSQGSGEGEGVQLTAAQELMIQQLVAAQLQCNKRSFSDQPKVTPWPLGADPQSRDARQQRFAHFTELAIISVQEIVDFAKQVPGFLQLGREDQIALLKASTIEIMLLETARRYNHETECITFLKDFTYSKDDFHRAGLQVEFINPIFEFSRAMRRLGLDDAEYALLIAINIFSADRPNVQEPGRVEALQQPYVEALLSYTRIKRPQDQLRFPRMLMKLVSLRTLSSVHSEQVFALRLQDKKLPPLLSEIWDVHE
- experimental_details: Affinity On-target Cellular interaction: (Reporter gene assay (HEK293T cells)) EUB0001482aCl NR1H2
- Format: functional, cell-based, HEK-293T
- Parameters: mode of action Agonist, recommended concentration 10 uM
pEC50: −log10 of the molar value.

# smiles_str, pEC50
rows = [
    ("C[C@H](CCOc1cccc(CC(=O)O)c1)N(Cc1cccc(C(F)(F)F)c1Cl)CC(c1ccccc1)c1ccccc1", 5.54),
]
